Measured values drawn from patent US20230117034A1 for this set.

# target.entity: CDK12 (nuclear staining in CAL-120 cells) (Homo sapiens, UniProt Q9NYV4)
# Construct: endogenous in cells; host or cells: CAL-120 human breast cancer cells (DSMZ ACC 459)
# Sequence (Q9NYV4 whole entry): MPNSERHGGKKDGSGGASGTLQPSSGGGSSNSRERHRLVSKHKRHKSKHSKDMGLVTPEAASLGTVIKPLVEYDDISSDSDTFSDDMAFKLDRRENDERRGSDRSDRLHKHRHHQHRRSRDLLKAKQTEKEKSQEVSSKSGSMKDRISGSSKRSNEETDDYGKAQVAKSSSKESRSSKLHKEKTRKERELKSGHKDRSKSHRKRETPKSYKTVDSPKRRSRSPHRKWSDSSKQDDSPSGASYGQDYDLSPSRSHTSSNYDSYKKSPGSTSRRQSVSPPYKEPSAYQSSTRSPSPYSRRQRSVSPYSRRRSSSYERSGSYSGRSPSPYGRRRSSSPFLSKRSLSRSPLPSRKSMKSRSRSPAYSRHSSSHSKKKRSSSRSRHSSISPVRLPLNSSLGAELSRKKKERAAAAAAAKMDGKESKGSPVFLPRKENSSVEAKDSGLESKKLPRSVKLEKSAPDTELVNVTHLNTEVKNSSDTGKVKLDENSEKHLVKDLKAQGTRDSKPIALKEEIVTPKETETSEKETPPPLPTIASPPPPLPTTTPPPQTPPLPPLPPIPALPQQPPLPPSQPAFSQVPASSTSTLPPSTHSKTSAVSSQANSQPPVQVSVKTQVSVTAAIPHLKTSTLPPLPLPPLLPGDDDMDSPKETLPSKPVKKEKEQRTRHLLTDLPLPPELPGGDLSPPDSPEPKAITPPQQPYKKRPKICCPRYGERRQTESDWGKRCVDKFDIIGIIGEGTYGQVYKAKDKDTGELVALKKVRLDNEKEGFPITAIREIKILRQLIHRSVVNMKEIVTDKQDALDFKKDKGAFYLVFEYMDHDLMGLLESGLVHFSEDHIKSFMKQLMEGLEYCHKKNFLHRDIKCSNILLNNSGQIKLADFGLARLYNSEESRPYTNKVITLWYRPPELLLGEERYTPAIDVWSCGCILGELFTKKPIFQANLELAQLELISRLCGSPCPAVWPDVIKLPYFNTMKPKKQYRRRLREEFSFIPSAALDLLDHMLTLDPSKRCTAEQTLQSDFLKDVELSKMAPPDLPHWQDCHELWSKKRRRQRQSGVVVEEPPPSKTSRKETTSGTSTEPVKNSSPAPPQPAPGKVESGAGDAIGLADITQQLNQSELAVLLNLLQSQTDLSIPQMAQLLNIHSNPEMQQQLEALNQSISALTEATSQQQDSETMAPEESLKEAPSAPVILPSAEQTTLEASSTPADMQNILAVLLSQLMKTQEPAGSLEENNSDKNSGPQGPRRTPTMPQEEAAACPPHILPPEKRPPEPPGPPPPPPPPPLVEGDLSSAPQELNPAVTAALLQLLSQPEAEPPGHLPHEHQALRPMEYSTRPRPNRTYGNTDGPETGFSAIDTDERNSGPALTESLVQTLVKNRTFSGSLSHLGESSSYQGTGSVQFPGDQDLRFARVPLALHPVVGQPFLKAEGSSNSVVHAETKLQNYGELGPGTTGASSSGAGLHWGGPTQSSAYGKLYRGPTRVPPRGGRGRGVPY
# Sequence (O75909 whole entry partner): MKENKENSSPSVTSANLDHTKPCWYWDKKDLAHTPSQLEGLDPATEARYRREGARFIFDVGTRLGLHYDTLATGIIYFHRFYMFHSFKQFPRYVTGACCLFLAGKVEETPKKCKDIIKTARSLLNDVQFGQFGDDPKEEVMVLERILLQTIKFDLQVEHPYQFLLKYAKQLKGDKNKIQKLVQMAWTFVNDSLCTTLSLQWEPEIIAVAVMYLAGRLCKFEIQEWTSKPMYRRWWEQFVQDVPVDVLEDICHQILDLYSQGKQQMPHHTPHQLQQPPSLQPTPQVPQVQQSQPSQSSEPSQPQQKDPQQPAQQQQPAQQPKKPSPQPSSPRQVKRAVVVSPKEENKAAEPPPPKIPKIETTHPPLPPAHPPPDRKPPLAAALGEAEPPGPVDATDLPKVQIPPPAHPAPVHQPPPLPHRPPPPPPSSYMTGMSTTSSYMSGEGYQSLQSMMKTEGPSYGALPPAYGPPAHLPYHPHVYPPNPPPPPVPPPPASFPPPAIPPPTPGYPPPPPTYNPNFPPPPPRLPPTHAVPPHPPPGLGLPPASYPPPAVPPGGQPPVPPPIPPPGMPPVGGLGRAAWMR
# experimental.details: CDK12 nuclear protein level: immunofluorescence/high content analysis (CAL-120)
# Format: cell-based
# condition.summary: ratio of IC50 CDK12 high ATP kinase assay to DC50 CDK12 degradation (IF, CAL-120)
readout.kind: (IC50 CDK12 high ATP) to (Degradation DC50 CDK12) ratio
One number for each entry.

Here is how some molecules turned out for (IC50 CDK12 high ATP) to (Degradation DC50 CDK12) ratio.
>  <molecule>
CN(CC(C)(C)O)c1nc(NCc2nc3cc(F)c(Cl)cc3[nH]2)n2ncc(C3CC3)c2n1 [Example 317]

>  <endpoint.value>
179

$$$$
>  <molecule>
C[C@@H]1CN(c2nc(NCc3nnc(-c4ccccc4)[nH]3)n3ncc(Br)c3n2)C[C@H](C)N1C [Example 125]

>  <endpoint.value>
1724

$$$$

Now for another entry.
Task item: Short answer please: (IC50 CDK12 high ATP) to (Degradation DC50 CDK12) ratio, CDK12 (nuclear staining in CAL-120 cells) (Homo sapiens, UniProt Q9NYV4), entry CN(CC(C)(C)O)c1nc(NCc2nc3c(F)c(F)ccc3[nH]2)n2ncc(C(F)(F)F)c2n1 [Example 402]
Reply: 32
